# Measured target: UniProt:P53341
# Sequence (P53341 whole entry): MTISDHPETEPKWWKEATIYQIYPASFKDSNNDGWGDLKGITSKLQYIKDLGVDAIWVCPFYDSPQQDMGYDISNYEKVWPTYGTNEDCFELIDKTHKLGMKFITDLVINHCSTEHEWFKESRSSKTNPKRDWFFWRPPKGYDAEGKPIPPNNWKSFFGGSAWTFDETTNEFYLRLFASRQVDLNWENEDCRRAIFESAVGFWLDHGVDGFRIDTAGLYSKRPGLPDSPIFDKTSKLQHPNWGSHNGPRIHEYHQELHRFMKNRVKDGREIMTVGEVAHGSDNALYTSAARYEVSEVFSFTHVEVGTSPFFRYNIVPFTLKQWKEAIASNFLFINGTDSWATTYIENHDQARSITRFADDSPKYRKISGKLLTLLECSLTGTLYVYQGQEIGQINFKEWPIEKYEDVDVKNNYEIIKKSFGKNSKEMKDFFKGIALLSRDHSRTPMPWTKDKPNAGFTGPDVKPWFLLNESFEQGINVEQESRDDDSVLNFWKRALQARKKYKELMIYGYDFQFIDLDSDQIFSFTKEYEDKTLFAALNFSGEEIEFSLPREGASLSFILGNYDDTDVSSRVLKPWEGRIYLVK
Readout name: pIC50
The scale used: pIC50 is minus the common logarithm of the concentration in molar units.

Prompt: Lookup: pIC50 / UniProt:P53341 / "CC(=O)[C@@H]1COC(=O)[C@H]1C"
Completion: 3.71
